assay: in vitro; format: in vitro ADME, rat; conditions: pH 7.4; rat liver microsomes
PARAMETER MEASURED: microsomal CLint at 3 µM

The compound listed as CCc1c(-c2nnc(Nc3ccccc3)o2)[nH]c2ccc(Cl)cc12 [ABM300] has a reported microsomal CLint at 3 µM of 12.6 µL/min/mg

###

molecular target: CB1R (Homo sapiens, UniProt P21554); assay: Equilibrium binding assay with [3H]CP55,940 in hCB1R CHO cells; conditions: pEC50, increase in specific binding of [3H]CP55,940, hCB1R CHO, [3H]CP55,940 0.5 nM
Sequence (P21554 whole entry): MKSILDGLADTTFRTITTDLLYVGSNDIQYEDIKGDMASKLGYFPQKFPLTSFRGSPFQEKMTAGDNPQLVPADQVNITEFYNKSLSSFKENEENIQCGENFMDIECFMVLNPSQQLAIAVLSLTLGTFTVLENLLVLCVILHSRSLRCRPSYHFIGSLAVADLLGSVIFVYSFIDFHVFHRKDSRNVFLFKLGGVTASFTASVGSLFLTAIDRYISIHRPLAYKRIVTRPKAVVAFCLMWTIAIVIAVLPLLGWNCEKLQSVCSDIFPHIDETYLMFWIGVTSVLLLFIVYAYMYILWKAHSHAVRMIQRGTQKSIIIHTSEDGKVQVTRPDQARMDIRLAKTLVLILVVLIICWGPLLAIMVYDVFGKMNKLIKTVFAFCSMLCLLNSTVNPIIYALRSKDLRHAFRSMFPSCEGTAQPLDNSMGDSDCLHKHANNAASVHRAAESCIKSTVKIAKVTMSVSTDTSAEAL
PARAMETER MEASURED: EC50 (nM)
Give just the number in nM; leave the unit off.

The compound listed as `CCc1c(-c2nnc(Nc3ccccc3)o2)[nH]c2ccc(Cl)cc12` has a reported EC50 of 126

###

Target: CB1R (Homo sapiens, UniProt P21554)
Experiment: Equilibrium binding assay with [3H]CP55,940 in hCB1R CHO cells
Conditions: EC50, increase in specific binding of [3H]CP55,940, hCB1R CHO, [3H]CP55,940 0.5 nM
Procedure: Non-specific binding was defined in the presence of 10 µM WIN55,212-2. Radioactivity was quantitated by liquid scintillation spectrometry. Specific binding was defined as the difference between the binding that occurred in the presence and absence of 10 µM of WIN55212. Data were analyzed by nonlinear regression analysis of allosteric modulator titration model using GraphPad Prism 8.0 (GraphPad, San Diego, CA).
PARAMETER MEASURED: pEC50
On this scale, pEC50 is minus log10 of a concentration expressed in M (mol/L).

The compound `CCc1c(-c2nnc(Nc3ccccc3)o2)[nH]c2ccc(Cl)cc12` , when measured on CB1R (Homo sapiens, UniProt P21554), yielded pEC50 of 6.88

###

experiment: in vitro; format: in vitro ADME, rat; details: microsomes, pH 7.4; rat liver microsomal preparations
PARAMETER MEASURED: half-life at 3 µM (h)
Give just the number in h; leave the unit off.

The molecule listed as CCc1c(-c2nnc(Nc3ccccc3)o2)[nH]c2ccc(Cl)cc12 [ABM300] has a reported half-life at 3 µM of 1.83

###

assay: in vivo; set-up: species or system male C57Bl/6 mice; conditions: male, C57Bl/6, mouse, ip, 10 mg/kg
PARAMETER MEASURED: AUC(0-t) (µg·h/mL)
Give just the number in µg·h/mL; leave the unit off.

The compound listed as `CCc1c(-c2nnc(Nc3ccccc3)o2)[nH]c2ccc(Cl)cc12` has a reported AUC(0-t) of 2.05

###

target: CB1R (Homo sapiens, UniProt P21554); assay: cell-based; conditions: read-out: IC50, reduction in ERK1/2 phosphorylation
PARAMETER MEASURED: IC50 (nM)
Give just the number in nM; leave the unit off.

The molecule listed as `CCc1c(-c2nnc(Nc3ccccc3)o2)[nH]c2ccc(Cl)cc12` has a reported IC50 of 47

###

experiment: in vivo; design: species or system male C57Bl/6 mice; settings: male, C57Bl/6, mouse, 10 mg/kg i.p., at 30 min, read-out: brain concentration
PARAMETER MEASURED: concentration at 30 min
Field note: include the unit after the figure.

The compound listed as `CCc1c(-c2nnc(Nc3ccccc3)o2)[nH]c2ccc(Cl)cc12` has a reported concentration at 30 min of 374 ng/mL
